Tested on: human Factor 7 mRNA
Assay: Dose-dependent antisense inhibition of human Factor 7 in HepB3 cells, transfection with electroporation
Assay type: cell-based
Conditions: 50 μM, 16 hours (Example 7, Table 15)
In the oligonucleotide strings, read from the 5' end, every base follows the letter of its sugar. An asterisk marks phosphorothioate; unmarked linkages are phosphodiester. Other units and linkages are bracketed, terminal groups are in braces. A string of capitals states the bases alone. e = 2'-O-(2-methoxyethyl) (MOE); [5mC] = 5-methylcytosine; d = 2'-deoxy (DNA)
Below, each of the substances is paired with its reported percent inhibition of Factor 7 mRNA, relative to untreated control cells value.
Respond numerically; units are % and should not be typed.

According to the records, this substance 407939 (antisense eT*eG*e[5mC]*eA*eG*d[5mC]*d[5mC]*d[5mC]*dG*dG*d[5mC]*dA*d[5mC]*d[5mC]*d[5mC]*eA*eG*e[5mC]*eG*eA) [compound 407939] displays percent inhibition of Factor 7 mRNA, relative to untreated control cells of 68

According to the records, this substance 422150 (antisense eG*e[5mC]*eA*dT*dG*dG*dT*dG*dA*dT*dG*d[5mC]*dT*dT*d[5mC]*dT*dG*eA*eA*eT) [compound 422150] displays percent inhibition of Factor 7 mRNA, relative to untreated control cells of 68

According to the records, this substance 422296 (antisense e[5mC]*e[5mC]*dG*dA*dG*dT*dT*d[5mC]*dT*dG*d[5mC]*dA*dG*dG*dA*eG*e[5mC]*eG*eG*e[5mC]) [compound 422296] displays percent inhibition of Factor 7 mRNA, relative to untreated control cells of 82

According to the records, this substance 422140 (antisense eG*eT*eT*e[5mC]*eT*dG*d[5mC]*dA*dG*dG*dA*dG*d[5mC]*dG*dG*e[5mC]*e[5mC]*eT*eA*eA) [compound 422140] displays percent inhibition of Factor 7 mRNA, relative to untreated control cells of 69

According to the records, this substance 422229 (antisense eA*eT*dG*d[5mC]*dA*dT*dG*dG*dT*dG*dA*dT*dG*d[5mC]*dT*eT*e[5mC]*eT*eG*eA) [compound 422229] displays percent inhibition of Factor 7 mRNA, relative to untreated control cells of 65

* * *

Below, each of the substances is paired with its reported % Inhibition of human Factor 7 mRNA levels value.
Test system: human Factor 7 mRNA
Experiment: Antisense inhibition of human Factor 7 mRNA in HepB3 cells, lipofectin, 50 nM, real-time RT-PCR
Assay type: cell-based
Details: HepB3 cells, lipofectin, 50 nM antisense oligonucleotide, approximately 24 hours, primer probe set RTS 2927, relative to untreated control
Description: Antisense oligonucleotides targeted to a Factor 7 nucleic acid were tested for their effects on Factor 7 mRNA in vitro. […] After a treatment period of approximately 24 hours, RNA was isolated from the cells and Factor 7 mRNA levels were measured by real-time RT-PCR, as described herein. Factor 7 mRNA levels were adjusted according to total RNA content as measured by RIBOGREEN®. […]
In the oligonucleotide strings, read from the 5' end, every base follows the letter of its sugar. An asterisk marks phosphorothioate; unmarked linkages are phosphodiester. Other units and linkages are bracketed, terminal groups are in braces. A string of capitals states the bases alone. e = 2'-O-(2-methoxyethyl) (MOE); [5mC] = 5-methylcytosine; d = 2'-deoxy (DNA)
Respond numerically; units are % and should not be typed.

{"Substance": "416494 (antisense e[5mC]*eA*eG*eA*eT*dT*dT*dA*dA*dA*d[5mC]*dT*dG*d[5mC]*dA*eG*eA*eT*eG*eA) [compound 416494]", "Value Observed": 0}
{"Substance": "416483 (antisense eT*eG*eT*eG*eA*dG*dG*dG*dT*dT*d[5mC]*dA*dT*dT*dT*e[5mC]*eA*eG*eT*eG) [compound 416483]", "Value Observed": 22}
{"Substance": "416565 (antisense e[5mC]*eA*eG*eG*eA*dT*dG*d[5mC]*dT*d[5mC]*dA*dT*dG*dG*d[5mC]*eA*eG*eA*e[5mC]*eA) [compound 416565]", "Value Observed": 0}
{"Substance": "407641 (antisense e[5mC]*e[5mC]*eT*eG*eA*dG*dG*d[5mC]*d[5mC]*dA*dG*d[5mC]*dA*dG*dA*eT*e[5mC]*eA*e[5mC]*eG) [compound 407641]", "Value Observed": 73}
{"Substance": "416479 (antisense eG*eA*e[5mC]*eA*eG*d[5mC]*dA*d[5mC]*dA*d[5mC]*dA*dT*dG*dG*dA*eG*eT*e[5mC]*eA*eG) [compound 416479]", "Value Observed": 56}

According to the records, this substance 416495 (antisense eT*e[5mC]*eT*eA*eG*dA*dA*dT*dT*d[5mC]*d[5mC]*dA*dA*dA*d[5mC]*e[5mC]*e[5mC]*e[5mC]*eT*eA) [compound 416495] displays % Inhibition of human Factor 7 mRNA levels of 0

According to the records, this substance 416502 (antisense eG*eT*eT*e[5mC]*eT*dT*dT*dG*dA*dA*dA*dA*dA*dT*dA*eA*eT*e[5mC]*e[5mC]*e[5mC]) [compound 416502] displays % Inhibition of human Factor 7 mRNA levels of 22

According to the records, this substance 416491 (antisense eG*eA*eG*eA*eA*dG*dG*dG*dT*dT*dG*d[5mC]*dA*dG*dG*e[5mC]*eA*eG*eG*eA) [compound 416491] displays % Inhibition of human Factor 7 mRNA levels of 2

According to the records, this substance 407643 (antisense e[5mC]*eA*e[5mC]*eA*e[5mC]*dA*dT*dG*dG*dA*dG*dT*d[5mC]*dA*dG*e[5mC]*eA*eT*e[5mC]*eG) [compound 407643] displays % Inhibition of human Factor 7 mRNA levels of 80

According to the records, this substance 416543 (antisense eT*e[5mC]*e[5mC]*eT*eG*d[5mC]*dG*dA*dG*dT*dG*dG*dG*dA*dG*eT*eT*eG*eG*eA) [compound 416543] displays % Inhibition of human Factor 7 mRNA levels of 0

According to the records, this substance 416434 (antisense e[5mC]*eT*eG*eT*eA*dA*dG*dA*dA*dA*dT*d[5mC]*d[5mC]*dA*dG*eA*eA*e[5mC]*eA*eG) [compound 416434] displays % Inhibition of human Factor 7 mRNA levels of 0
